assay: qHTS RealTime-Glo MT Cell Viability Assay in HEK293 cells - 16 hour (AID 1224872); settings: RealTime-Glo luminescence; series mostly up to 76.8 µM; also: nearly all actives have a fitted effect of over 50% in size
Records with an inconclusive call do not appear. Activity calls are given as the source filed them. Calls follow the shape of the dose curve; as a rule, active = well fitted cell-killing curve with a large enough effect in the repeat runs; inconclusive = weak or mixed curves, or effect the other way; inactive = flat fitted curve, though single readings scatter.
Labels: active, inactive

[
  {
    "Molecule": "O=C(c1ccc(O)c(O)c1)c1ccc(O)cc1O",
    "Assigned category": "inactive"
  },
  {
    "Molecule": "CCCc1ccc(OCC(=O)N2CCN(C(=O)COc3ccc(CCC)cc3OC)CC2)c(OC)c1",
    "Assigned category": "active"
  },
  {
    "Molecule": "O=C(/C=C/c1ccccc1)OC/C=C/c1ccccc1",
    "Assigned category": "inactive"
  },
  {
    "Molecule": "O=C1C(c2[nH]c3ccc(S(=O)(=O)O)cc3c2O)=Nc2ccc(S(=O)(=O)O)cc21",
    "Assigned category": "inactive"
  },
  {
    "Molecule": "OC[C@@H](O)[C@@H](O)CO",
    "Assigned category": "inactive"
  },
  {
    "Molecule": "C=CCCC(=O)/C=C/C1C(C)=CCCC1(C)C (stereo unspecified)",
    "Assigned category": "inactive"
  },
  {
    "Molecule": "S=c1nccc[nH]1",
    "Assigned category": "inactive"
  },
  {
    "Molecule": "CC(C)=CCNc1ncnc2c1ncn2[C@@H]1O[C@H](CO)[C@@H](O)[C@H]1O",
    "Assigned category": "inactive"
  },
  {
    "Molecule": "CCCCOC(=O)CC",
    "Assigned category": "inactive"
  },
  {
    "Molecule": "Cc1c(F)c(N2CCNC(C)C2)cc2c1c(=O)c(C(=O)O)cn2C1CC1 (stereo unspecified)",
    "Assigned category": "inactive"
  },
  {
    "Molecule": "O=[N+]([O-])c1ccc(O)cc1C(F)(F)F",
    "Assigned category": "inactive"
  },
  {
    "Molecule": "Sc1nc2ccccc2s1",
    "Assigned category": "inactive"
  },
  {
    "Molecule": "CC(C)(C)c1ccc(C(O)CCCN2CCC(C(O)(c3ccccc3)c3ccccc3)CC2)cc1 (stereo unspecified)",
    "Assigned category": "active"
  },
  {
    "Molecule": "Cc1ccc(N/N=c2\\c(=O)cc/c(=N\\Nc3ccc(S(=O)(=O)O)cc3)c2=O)c(C)c1",
    "Assigned category": "inactive"
  },
  {
    "Molecule": "CCN(CCN)c1cccc(C)c1",
    "Assigned category": "inactive"
  },
  {
    "Molecule": "Cc1cccc(C)c1NC(=O)c1ccc(N)cc1",
    "Assigned category": "inactive"
  },
  {
    "Molecule": "CC(=O)OCC=C(C)C",
    "Assigned category": "inactive"
  },
  {
    "Molecule": "CCCCCCCCCCCC(=O)OCC(C)OC(=O)CCCCC(=O)O (stereo unspecified)",
    "Assigned category": "inactive"
  },
  {
    "Molecule": "CCCCCCCCCCCCOCCOCCOCCOCCOCCOCCOCCOCCOCCO",
    "Assigned category": "active"
  },
  {
    "Molecule": "O=S(=O)(O)c1ccc(N=Nc2c(O)ccc3ccccc23)cc1",
    "Assigned category": "inactive"
  },
  {
    "Molecule": "Fc1ccc(C(c2ccc(F)cc2)N2CCNCC2)cc1",
    "Assigned category": "inactive"
  },
  {
    "Molecule": "CCC(=O)OC(=O)CC",
    "Assigned category": "inactive"
  },
  {
    "Molecule": "O=C1NC(=O)[C@@H]2CC=CC[C@H]12",
    "Assigned category": "inactive"
  },
  {
    "Molecule": "CCCCN(CCCC)CC(O)c1cc(Cl)cc2c1-c1ccc(Cl)cc1/C2=C/c1ccc(Cl)cc1 (stereo unspecified)",
    "Assigned category": "inactive"
  },
  {
    "Molecule": "COc1cc(C)ccc1O",
    "Assigned category": "inactive"
  },
  {
    "Molecule": "CC/C=C\\CCCCCO",
    "Assigned category": "inactive"
  }
]

From: PubChem BioAssay (Tox21)
